# Target or system: HCV NS3 helicase NS3h_1b(con1) (Hepatitis C virus genotype 1b, UniProt Q9WMX2)
# Construct: truncated C-terminally His-tagged NS3 proteins lacking the N-terminal protease, called NS3h; His-tag (C); made in house
# Sequence (Q9WMX2 1192-1657): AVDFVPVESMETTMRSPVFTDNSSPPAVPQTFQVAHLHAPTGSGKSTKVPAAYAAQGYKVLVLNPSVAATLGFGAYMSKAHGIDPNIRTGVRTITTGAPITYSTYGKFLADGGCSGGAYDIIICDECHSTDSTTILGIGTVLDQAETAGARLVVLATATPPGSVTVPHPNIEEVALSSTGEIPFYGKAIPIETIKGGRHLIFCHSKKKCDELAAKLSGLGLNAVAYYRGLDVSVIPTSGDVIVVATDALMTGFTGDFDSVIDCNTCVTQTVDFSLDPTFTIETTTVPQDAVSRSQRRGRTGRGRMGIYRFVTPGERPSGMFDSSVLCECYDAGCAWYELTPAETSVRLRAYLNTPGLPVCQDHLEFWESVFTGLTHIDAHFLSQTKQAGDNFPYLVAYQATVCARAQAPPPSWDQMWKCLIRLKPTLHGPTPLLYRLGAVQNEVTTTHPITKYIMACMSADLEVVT
# Experiment description: MBHA screen of NCI mechanistic set library at 20 μM (percent inhibition, compound interference)
# Format: biochemical
# Run parameters: compounds at 20 μM, MBHA with DNA substrate; assay interference calculated with Equation 2
Consider the following compounds; for each one, report its Int.* (Ratio) (Interference).
Numbers only, in Ratio.

Consider the reported Int.* (Ratio) (Interference) for these compounds:
Field Int.* (Ratio) (Interference) (entry COc1ccc(OC)c2nc3c(C(=O)NCCN(C)C)cccc3nc12.Cl [Compound 678917] ) reads 0.89

Field Int.* (Ratio) (Interference) (entry Cc1cc2c(C(C)C)c(O)c(O)c(C=O)c2c(O)c1-c1c(C)cc2c(C(C)C)c(O)c(O)c(C=O)c2c1O [Compound 56817] ) reads 0.90

Field Int.* (Ratio) (Interference) (entry O=C(CC1(O)C(=O)Nc2c(Cl)cc(Cl)cc21)c1cccc2ccccc12 (stereo not shown) [Compound 635328] ) reads 0.99

Field Int.* (Ratio) (Interference) (entry O=C1C=C(Nc2ccccc2C(=O)CC(=O)C(=O)Nc2ccc(Cl)c(Cl)c2)c2ccccc2C1=O [Compound 641250] ) reads 0.95

Field Int.* (Ratio) (Interference) (entry C1CN(c2nnc(N3CCC3)nn2)C1 [Compound 625748] ) reads 0.94

Hi, could you look up Int.* (Ratio) (Interference) for each item in my list?
1. CC(=O)OC1CC(n2cc(F)c(=O)[nH]c2=O)OC1CO (stereo not shown) [Compound 407335]
2. Cc1c2ccnc(C(N)=O)c2c(C)c2c1[nH]c1ccccc12.Cl [Compound 335142]
3. Cc1c(Cl)cccc1NC(=O)/C=C/c1ccccc1 [Compound 191392]

### Response
[0.88, 0.95, 1.10]

---

# Target or system: HCV NS3 helicase NS3h_1b(con1) (Hepatitis C virus genotype 1b)
# Construct: truncated C-terminally His-tagged NS3 proteins lacking the N-terminal protease, called NS3h; His-tag (C); made in house
# Experiment description: MBHA screen of NCI mechanistic set library at 20 μM (percent inhibition, compound interference)
# Assay type: biochemical
# Run parameters: compounds at 20 μM, MBHA with DNA substrate; calculated from Equation 1
Readout label: Inh. (%) (Inhibition)
One number for each entry, in %.

Summary line: CC(C)CCCC(=O)CCCCCCC(=O)CCN(O)C(=O)C(N)CO.O=S(=O)(O)O (centres unmarked) [Compound 106997] , HCV NS3 helicase NS3h_1b(con1) (Hepatitis C virus genotype 1b), reported Inh. (%) (Inhibition) = −2.2

Summary line: COc1ccc(-c2cc(-c3ccccc3)nc3c2CC(=O)Nc2ccccc2-3)cc1OC [Compound 682769] , HCV NS3 helicase NS3h_1b(con1) (Hepatitis C virus genotype 1b), reported Inh. (%) (Inhibition) = −7.3

Hi, could you look up Inh. (%) (Inhibition) for each item in my list?
1. COC(=O)[C@@]12OC[C@]34[C@H]([C@@H](O)[C@@H]1O)[C@@]1(C)CC(=O)C(O)=C(C)[C@@H]1C[C@H]3OC(=O)[C@H](OC(=O)C=C(C)C)[C@@H]24 [Compound 172924]
2. OC[C@H]1O[C@@H](n2cnc3cncnc32)[C@H](O)[C@@H]1O [Compound 65423]
3. Nc1ccn([C@@H]2C=C(CO)[C@@H](O)[C@H]2O)c(=O)n1 [Compound 375575]

### Response
[13.3, 2.0, 12.9]
